# test.system: SMAD3 MH1 (Homo sapiens, UniProt P84022 1-132)
# Sequence (P84022 1-132): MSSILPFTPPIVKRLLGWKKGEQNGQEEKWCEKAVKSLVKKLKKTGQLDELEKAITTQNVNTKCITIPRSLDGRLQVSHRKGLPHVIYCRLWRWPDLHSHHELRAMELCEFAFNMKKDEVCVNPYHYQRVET
# assay.notes: EMSA; Hill 2.1; EMSA: 25 mM Tris-HCl (pH not given for binding buffer; RNA stock pH 7.5), 115 mM KCl, 1 mM MgCl2, 1 mM DTT, 20 ng/ul poly I:C, 0.1 mg/ml BSA, 10% glycerol, on ice 2 h; 0.5x TBE gel at 4 C
# condition.set: protein: recombinant; tags: 6xHis-SUMO cleaved; label: 5' 32P; hairpin with 6x3 internal loop
pKd: −log10 of the molar value.
quantity.kind: pKd

binder | assay.value
17d D4a isolated terminal loop (structured_RNA) RNA: GGGUCUCGUAUUGCAGAAAUGACACAUCUUGCCCGUAACCAAUCGGGUAAGGUGUGUCAAAUCAAUGCGAGAC | 6.24
